meta.source: PubChem BioAssay AID1376

assay.system: Bifunctional protein GlmU (Mycobacterium tuberculosis (strain ATCC 25618 / H37Rv)) (UniProt P9WMN3)
Sequence (P9WMN3 whole entry, looked up): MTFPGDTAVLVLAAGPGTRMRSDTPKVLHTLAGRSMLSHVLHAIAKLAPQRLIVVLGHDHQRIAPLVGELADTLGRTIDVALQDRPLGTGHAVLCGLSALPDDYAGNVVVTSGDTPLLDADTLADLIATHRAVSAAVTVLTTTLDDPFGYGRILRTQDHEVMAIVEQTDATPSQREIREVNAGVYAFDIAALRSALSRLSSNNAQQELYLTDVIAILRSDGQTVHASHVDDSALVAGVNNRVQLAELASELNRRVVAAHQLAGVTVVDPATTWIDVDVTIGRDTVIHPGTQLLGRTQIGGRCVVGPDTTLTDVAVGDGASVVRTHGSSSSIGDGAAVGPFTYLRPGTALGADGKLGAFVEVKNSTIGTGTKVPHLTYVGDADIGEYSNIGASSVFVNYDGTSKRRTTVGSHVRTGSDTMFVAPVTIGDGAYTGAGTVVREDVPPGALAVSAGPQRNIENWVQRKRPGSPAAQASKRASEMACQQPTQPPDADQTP
protocol.summary: inhibition of mycobacterial GlmU enzyme – biochemical, glucosamine-1-phosphate acetyltransferase (AID 1376);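 note: 0% = complete reaction with vehicle and 100% = reaction without substrate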
conditions.used: M. tuberculosis GlmU acetyltransferase enzyme assay; hits give high values;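 tested at 30 µM in the primary screen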
Screen size: about 220,000 compounds; about 530 (0.24%) were called active. This excerpt belongs to a sample that is enriched for actives. Potency and affinity values are given separately.
reported.metric: inhibition (%)
Answers are plain numbers, in %.

Consider the worked cases shown below.
In [3]: df
Out[3]:
                               molecule  measure_unit  obs_value
0      O=C/C(=C\Nc1ccccn1)c1nc2ccccc2o1             %       13.3
1          N#Cc1c(Nc2ccccc2Cl)s[nH]c1=O             %       0.08
2  Cc1cc(N2CCOCC2)ccc1/C=C1/SC(=O)NC1=O             %      -0.05

Give measured inhibition for every item shown.
1. N/C(=N\S(=O)(=O)c1cc(C(F)(F)F)cc(C(F)(F)F)c1)c1ccccc1
2. O=C(O)COc1ccc(NC(=O)c2cccs2)cc1
3. O=C/C(=C\Nc1ccc(Cl)cn1)c1nc2ccccc2o1
4. CC(C)C1Oc2cc3oc(=O)ccc3cc2C1=O (stereo unspecified)
5. O=C1CC(N(O)c2ccccc2)C(=O)N1Cc1ccccc1 (stereo unspecified)
6. CN1CCN(c2ccc([N+](=O)[O-])c(Sc3nncn3C)c2)CC1

Ans:
1. 4.74
2. -5.47
3. 0.28
4. 0.4
5. 8.24
6. -2.97

Give measured inhibition for every item shown.
1. Nc1c(C(=O)c2ccc(F)cc2)oc2ccccc12
2. C/C=C/C(=O)N1CC2(CC(c3cccc(NC(=O)/C(C)=C/C)c3)=NO2)C[C@H]1C(N)=O (stereo partly specified)

Ans:
[1.74, 3.31]
